Reported melting point values for the following compounds.

So for CC1CC(=O)c2c(C(=O)Nc3ccncc3)c[nH]c2C1 (stereo not shown) [Example 3(mm)] , the logged melting point turned out to be 280 to 290 °C

Documented melting point of CC1CC(=O)c2c(C(=O)Nc3ccc(F)cc3)c[nH]c2C1 (stereo not shown) [Example 3(t)] : 262 to 264 °C

# melting point (compound: COc1ccc(NC(=O)c2c[nH]c3c2C(=O)CC(C)(C)C3)cc1O [Example 3(h)] ) is 282 to 284 °C

Quick note, melting point for CC1(C)CC(=O)c2c(C(=O)Nc3cccc(F)c3)c[nH]c2C1 [Example 3(b)] landed at 259 to 261 °C

Reported melting point of COc1ccc(NC(=O)c2c[nH]c3c2C(=O)CC(C)(C)C3)c(O)c1 [Example 3(g)] : 190 to 192 °C
